Ref: ChEMBL document CHEMBL2057148

# System: Plasmodium falciparum
# ASSAY COMMENT: Antimalarial activity against chloroquine-resistant Plasmodium falciparum K1 infected in human A-positive type erythrocytes assessed as [3H]hypoxanthine incorporation after 24 hrs by scintillation counting
# Format: functional, organism-based
MEASURED PARAMETER: pIC50
Value format note: pIC50 is -log10 of concentration (mol/L); just state the number.

Inquiry: Recall and state the measured pIC50 for `CC[C@H](C)[C@@H]1NC(=O)c2csc(n2)[C@H]([C@@H](C)CC)NC(=O)c2csc(n2)CNC(=O)c2nc1oc2C` .
Reply text: 6.74
